Tested on: Colletotrichum lindemuthianum
Test: in vitro-Test with fungal microorganisms, Method A (tables D1-D8)
Assay type: cell-based
Details: Colletotrichum lindemuthianum, single active at 4.0 ppm; read-out: Efficacy %
MEASUREMENT LABEL: inhibition of growth at 4 ppm (%)
Numbers only, in %.

Guide cases for inhibition of growth at 4 ppm, answers given:
{"columns": ["MOLECULE", "ENDPOINT VALUE"],
 "data": [
  ["N#Cc1sc2c(=O)c3ccccc3c(=O)c=2sc1C#N", 100],
  ["O=C1C2CC=CCC2C(=O)N1SC(Cl)(Cl)Cl (stereo not shown)", 100],
  ["Cc1cc(C)nc(Nc2ccccc2)n1", 0]
]}

// next item, inhibition of growth at 4 ppm requested
# return recorded inhibition of growth at 4 ppm for entry CCCN(CC)CC1COC2(CCC(C(C)(C)C)CC2)O1 (stereo not shown)
8

Each recorded value in this set is attributed to patent US12653191B2.
